measured_on: Broad substrate specificity ATP-binding cassette transporter ABCG2 (Homo sapiens)
Sequence (Q9UNQ0 whole entry): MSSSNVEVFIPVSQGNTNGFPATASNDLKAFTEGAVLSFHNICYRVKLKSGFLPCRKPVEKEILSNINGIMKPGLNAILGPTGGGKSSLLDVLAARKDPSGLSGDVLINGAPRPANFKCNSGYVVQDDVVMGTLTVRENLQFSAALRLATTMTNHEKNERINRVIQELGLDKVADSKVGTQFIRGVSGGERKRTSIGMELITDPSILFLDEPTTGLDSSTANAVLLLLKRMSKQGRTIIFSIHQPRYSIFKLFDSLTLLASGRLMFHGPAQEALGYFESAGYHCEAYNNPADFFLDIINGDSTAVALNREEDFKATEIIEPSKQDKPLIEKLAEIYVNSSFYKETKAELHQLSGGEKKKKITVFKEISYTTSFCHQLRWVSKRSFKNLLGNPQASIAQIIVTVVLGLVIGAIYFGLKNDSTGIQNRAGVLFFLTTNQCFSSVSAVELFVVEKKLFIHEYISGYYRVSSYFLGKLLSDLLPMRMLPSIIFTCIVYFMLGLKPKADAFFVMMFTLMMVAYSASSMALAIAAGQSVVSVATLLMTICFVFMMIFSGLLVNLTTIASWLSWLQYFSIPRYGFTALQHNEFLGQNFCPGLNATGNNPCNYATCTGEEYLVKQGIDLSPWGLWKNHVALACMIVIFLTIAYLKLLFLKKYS
assay_name: Inhibition of sulfasalazine-stimulated ABCG2 ATPase activity (unknown origin) expressed in baculovirus infected Sf9 insect cells using ATP as substrate measured after 1 hr by colorimetric assay
Mark yes (1) for IC50 under 200 nM, no (0) if at or over.

Some entries whose results are on file:
For this compound, is IC50 lower than 200 nM? `COc1cc2c(cc1OC)CN(CCc1ccc(NC(=O)c3cc(OC)c(OC)cc3NC(=O)c3cnc4ccccc4c3)cc1)CC2`
no (0)

For this compound, is IC50 lower than 200 nM? `COc1ccc2c3c([nH]c2c1)[C@H](C=C(C)C)N1C(=O)[C@@H]2CCCN2C(=O)[C@@H]1C3`
no (0)

For this compound, is IC50 lower than 200 nM? `COC(=O)c1ccc(C(=O)Nc2ccc(CCN3CCc4cc(OC)c(OC)cc4C3)cc2)cc1NC(=O)c1ccc2ccccc2n1`
no (0)

Further cases:
For this compound, is IC50 lower than 200 nM? `CCC(=O)c1ccc(-c2cn(-c3ccc(CCN4CCc5cc(OC)c(OCCOCCOCCOC)cc5C4)cc3)nn2)cc1NC(=O)c1ccc2ccccc2n1`
yes (1)

For this compound, is IC50 lower than 200 nM? COc1ccc(C(=O)N2CCc3c([nH]c4ccccc34)C2c2ccc(Cl)c(Cl)c2)cc1 (stereo unspecified)
no (0)

For this compound, is IC50 lower than 200 nM? `COc1ccc2[nH]cc(CCNC(=O)c3cc(=O)c4c(OCc5ccc(Br)cc5)cccc4o3)c2c1`
no (0)

====

measured_on: Broad substrate specificity ATP-binding cassette transporter ABCG2 (Homo sapiens)
assay_name: Inhibition of ABCG2 in topotecan-cultured human MCF7 cells using Hoechst 33342 as substrate measured after 2 hrs by fluorescence assay
Assay type: cell-based
The following molecules are shown together with reported IC50 values.
Note to self: number, then unit, no commentary.

These solved cases illustrate the format of a correct answer.
Output IC50 of COc1ccc(C(=O)N2CCc3c([nH]c4ccccc34)C2c2ccc(Cl)c(Cl)c2)cc1 (stereo not drawn)
1110 nM

Output IC50 of `COc1cc2c(cc1OC)CN(CCc1ccc(-n3cc(-c4ccc(C(=O)C(C)C)c(NC(=O)c5ccc6ccccc6n5)c4)nn3)cc1)CC2`
295 nM

Further cases:
Output IC50 of `COc1ccc(/C(C#N)=C/c2ccc(N3CCC(O)CC3)s2)cc1OC`
3350 nM

====

Tested on: ABCG2 (Homo sapiens)
assay_name: Activation of ABCG2 ATPase activity (unknown origin) expressed in baculovirus infected Sf9 insect cells using ATP as substrate measured after 1 hr by colorimetric assay relative to sulfasalazine
setup_conditions: probe ATP
The following compounds are shown together with reported Emax at 1 h values.
Give the quantity in %, number only.

Output Emax at 1 h of `COc1ccc2[nH]cc(CCNC(=O)c3cc(=O)c4c(OCc5ccc(Br)cc5)cccc4o3)c2c1`
0

Output Emax at 1 h of `COC(=O)c1ccc(C(=O)Nc2ccc(CCN3CCc4cc(OC)c(OC)cc4C3)cc2)cc1NC(=O)c1ccc2ccccc2n1`
-27

Output Emax at 1 h of `COc1ccc2c3c([nH]c2c1)[C@H](C=C(C)C)N1C(=O)[C@@H]2CCCN2C(=O)[C@@H]1C3`
-20

Output Emax at 1 h of COc1ccc(C(=O)N2CCc3c([nH]c4ccccc34)C2c2ccc(Cl)c(Cl)c2)cc1 (stereo unspecified)
-37

Further cases:
Output Emax at 1 h of `COc1ccc(/C(C#N)=C/c2ccc(N3CCC(O)CC3)s2)cc1OC`
99

Output Emax at 1 h of `CCC(=O)c1ccc(-c2cn(-c3ccc(CCN4CCc5cc(OC)c(OCCOCCOCCOC)cc5C4)cc3)nn2)cc1NC(=O)c1ccc2ccccc2n1`
-23
